Entry source: patent US20100196385A1

- STUDY_SYSTEM: T1, full length human DLL4 (human, UniProt Q9NR61 27-685)
- T1 construct: whole, on cells; also called native DLL4 expressed in HEK293 cells
- T1 sequence (Q9NR61 27-685): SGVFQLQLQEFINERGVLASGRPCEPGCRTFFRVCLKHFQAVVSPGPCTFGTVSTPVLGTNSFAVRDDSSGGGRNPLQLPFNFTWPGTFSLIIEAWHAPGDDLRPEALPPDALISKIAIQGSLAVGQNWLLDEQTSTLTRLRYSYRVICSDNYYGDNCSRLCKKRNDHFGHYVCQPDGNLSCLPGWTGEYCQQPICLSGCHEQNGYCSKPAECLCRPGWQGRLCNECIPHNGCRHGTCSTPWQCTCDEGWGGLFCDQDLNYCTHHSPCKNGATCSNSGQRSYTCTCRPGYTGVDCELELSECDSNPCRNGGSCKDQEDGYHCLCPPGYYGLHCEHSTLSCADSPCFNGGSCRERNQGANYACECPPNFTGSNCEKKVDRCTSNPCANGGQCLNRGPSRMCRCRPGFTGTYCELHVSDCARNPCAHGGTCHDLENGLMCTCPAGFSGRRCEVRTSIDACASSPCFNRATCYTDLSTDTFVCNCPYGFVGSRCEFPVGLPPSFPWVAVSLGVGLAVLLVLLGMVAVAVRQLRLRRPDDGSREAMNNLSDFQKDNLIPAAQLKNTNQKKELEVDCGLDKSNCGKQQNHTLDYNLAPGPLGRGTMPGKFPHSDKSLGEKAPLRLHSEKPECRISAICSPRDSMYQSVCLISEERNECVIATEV
- TEST: FMAT competition, supernatant vs Alexa-647 human Notch1/Fc, 293T cells with human DLL4
OBSERVABLE: Mean % inhibition (%)
Note: unit % is implicit; provide only the numeric part.

For this binder ( 1D4 (antibody, IgG4, V domains shown, Fully human XenoMouse antibody; also used where no isotype is printed) VH: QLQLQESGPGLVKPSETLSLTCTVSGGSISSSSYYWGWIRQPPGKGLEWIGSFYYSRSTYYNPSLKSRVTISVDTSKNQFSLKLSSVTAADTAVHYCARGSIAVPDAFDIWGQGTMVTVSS VL: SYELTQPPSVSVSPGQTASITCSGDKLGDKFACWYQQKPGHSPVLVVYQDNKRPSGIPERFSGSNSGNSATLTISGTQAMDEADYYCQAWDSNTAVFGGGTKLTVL ), measured Mean % inhibition is 107

The recorded Mean % inhibition for 4B3 (antibody, IgG4, V domains shown, Fully human; also used where no isotype is printed) VH: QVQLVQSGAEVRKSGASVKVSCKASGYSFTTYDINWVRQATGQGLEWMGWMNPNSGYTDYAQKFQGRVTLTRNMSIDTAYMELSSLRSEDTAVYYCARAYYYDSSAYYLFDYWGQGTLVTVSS VL: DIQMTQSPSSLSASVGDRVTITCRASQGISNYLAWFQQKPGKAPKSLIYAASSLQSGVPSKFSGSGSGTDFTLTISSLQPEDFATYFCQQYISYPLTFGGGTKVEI is 133

So for 2H10 (antibody, IgG4, V domains shown, Fully human; used for IgG4 rows and where no isotype is printed; also called 2H10 IgG4) VH: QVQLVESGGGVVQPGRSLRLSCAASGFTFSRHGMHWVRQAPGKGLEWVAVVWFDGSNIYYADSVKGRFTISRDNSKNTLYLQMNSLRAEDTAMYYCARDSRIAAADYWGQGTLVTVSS VL: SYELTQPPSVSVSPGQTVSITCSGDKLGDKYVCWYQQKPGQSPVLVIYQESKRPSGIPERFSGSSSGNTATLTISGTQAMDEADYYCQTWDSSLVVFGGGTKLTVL , the logged Mean % inhibition turned out to be 127

get_value(item= 9G8 (antibody, IgG4, V domains shown, Fully human; used for IgG4 rows and where no isotype is printed; also called 9G8 IgG4) VH: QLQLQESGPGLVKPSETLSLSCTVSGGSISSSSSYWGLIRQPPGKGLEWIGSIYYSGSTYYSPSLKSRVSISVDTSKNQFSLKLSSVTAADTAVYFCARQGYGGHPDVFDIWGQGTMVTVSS VL: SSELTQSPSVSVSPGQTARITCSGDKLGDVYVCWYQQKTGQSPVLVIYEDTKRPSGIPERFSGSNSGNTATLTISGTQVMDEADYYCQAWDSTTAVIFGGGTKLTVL , readout=Mean % inhibition) returns 118

In plain terms, 4B4 (antibody, IgG4, V domains shown, Fully human; used for IgG4 rows and where no isotype is printed; also called 4B4 IgG4; 4B4.1) VH: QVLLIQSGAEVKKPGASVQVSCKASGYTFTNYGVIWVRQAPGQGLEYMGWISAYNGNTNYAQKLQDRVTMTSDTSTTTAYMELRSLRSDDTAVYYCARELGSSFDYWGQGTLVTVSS VL: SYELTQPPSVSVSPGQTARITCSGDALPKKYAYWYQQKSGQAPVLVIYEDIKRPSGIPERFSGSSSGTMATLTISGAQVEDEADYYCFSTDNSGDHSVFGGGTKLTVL has a documented Mean % inhibition of 121

Consider 3A7 (antibody, IgG4, V domains shown, Fully human; also used where no isotype is printed) VH: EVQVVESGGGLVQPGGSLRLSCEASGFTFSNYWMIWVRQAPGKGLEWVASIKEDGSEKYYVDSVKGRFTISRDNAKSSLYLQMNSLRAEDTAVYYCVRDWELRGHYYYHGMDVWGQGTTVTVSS VL: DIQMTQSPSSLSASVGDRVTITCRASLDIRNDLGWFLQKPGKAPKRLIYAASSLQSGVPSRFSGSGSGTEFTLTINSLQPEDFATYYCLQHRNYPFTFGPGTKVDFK . Its measured Mean % inhibition is 122
